Here the recorded Macrophage activity: Exocytosis, relative activity is given for each entry.
- System: macrophages
- Assay Text: Stimulation of macrophage activity (exocytosis / lysosomal enzyme activity), relative to the compound from Example 7
- Format: in vivo, NMRI mice
- Assay Context: 100 mg/kg, 1 × i.p. day 0; relative to Example 7 = 100%
Give the number; % is assumed, so skip it.

Guide cases for Macrophage activity: Exocytosis, relative activity, answers given:
CSc1nc(C)c(CC(=O)O)s1 :: 124
Cc1nc(SCCCC(=O)O)sc1CC(=O)O :: 100
O=C(O)CCCSc1nnc(SCCCC(=O)O)s1 :: 258
O=C(O)CSc1nnc(SCC(=O)O)s1 :: 186

// next entry
Reported Macrophage activity: Exocytosis, relative activity for "O=C(O)CSc1nc(O)nn1-c1ccccc1" was 218
